Each entry below carries its reported Ka.
Molecular target: T1, eukaryotically produced human IL-6 (human, UniProt P05231 30-212)
T1 construct: also called eukIL-6; Euk IL-6
Experiment: SPR; periplasmic fraction
RECORDED_METRIC: Ka (M⁻¹)

>>> data_value("Fab 29B11 (Fab, V domains shown, Fab) VH: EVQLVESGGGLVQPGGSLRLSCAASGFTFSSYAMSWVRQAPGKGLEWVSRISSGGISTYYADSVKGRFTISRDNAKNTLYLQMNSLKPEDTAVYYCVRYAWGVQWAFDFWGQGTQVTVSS VL: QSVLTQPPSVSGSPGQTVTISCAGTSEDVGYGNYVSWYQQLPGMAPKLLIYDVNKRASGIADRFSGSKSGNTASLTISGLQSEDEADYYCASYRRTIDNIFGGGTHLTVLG")
"1.83e+09"
>>> data_value("Fab 55C1 (Fab, V domains shown, VL-shuffled Fab of 29B11, periplasmic fraction; also called 55C1a) VH: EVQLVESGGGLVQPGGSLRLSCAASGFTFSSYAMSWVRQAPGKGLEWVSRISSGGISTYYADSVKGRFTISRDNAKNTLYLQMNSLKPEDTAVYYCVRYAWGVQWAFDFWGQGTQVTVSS VL: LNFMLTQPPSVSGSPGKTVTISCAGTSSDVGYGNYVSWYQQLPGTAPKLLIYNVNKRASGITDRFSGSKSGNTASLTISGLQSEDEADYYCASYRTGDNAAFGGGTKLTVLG")
"5.55e+09"
>>> data_value("Fab 55H1 (Fab, V domains shown, VL-shuffled Fab of 29B11, periplasmic fraction; also called 55H1c) VH: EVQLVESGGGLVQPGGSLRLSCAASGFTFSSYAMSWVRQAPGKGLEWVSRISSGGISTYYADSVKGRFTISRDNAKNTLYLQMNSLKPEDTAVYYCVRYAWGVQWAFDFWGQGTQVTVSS VL: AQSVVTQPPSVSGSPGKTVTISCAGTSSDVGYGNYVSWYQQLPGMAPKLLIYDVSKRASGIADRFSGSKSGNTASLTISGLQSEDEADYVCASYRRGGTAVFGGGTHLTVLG")
"1.02e+10"
>>> data_value("Fab 47C2 (Fab, V domains shown, VL-shuffled Fab of 29B11, periplasmic fraction; also called 47C2 (R4)) VH: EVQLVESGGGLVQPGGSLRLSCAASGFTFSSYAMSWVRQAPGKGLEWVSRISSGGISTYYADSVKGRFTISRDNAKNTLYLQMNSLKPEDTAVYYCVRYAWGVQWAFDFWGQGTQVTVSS VL: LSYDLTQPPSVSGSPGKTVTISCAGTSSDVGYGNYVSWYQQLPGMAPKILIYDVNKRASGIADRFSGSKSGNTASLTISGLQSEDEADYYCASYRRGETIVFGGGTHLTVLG")
"3.54e+09"
>>> data_value("Fab 55E2 (Fab, V domains shown, VL-shuffled Fab of 29B11, periplasmic fraction; also called 55E2b) VH: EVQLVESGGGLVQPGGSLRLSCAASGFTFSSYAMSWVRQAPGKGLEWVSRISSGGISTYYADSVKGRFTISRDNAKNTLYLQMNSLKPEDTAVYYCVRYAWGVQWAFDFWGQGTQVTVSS VL: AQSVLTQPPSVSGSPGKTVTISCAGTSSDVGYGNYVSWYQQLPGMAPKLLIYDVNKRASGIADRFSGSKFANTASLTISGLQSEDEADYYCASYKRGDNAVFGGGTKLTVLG")
"6.34e+09"
